Origin of values: PubChem BioAssay (NCI)

- Test system: COLO 205 colon
- Assay Protocol: NCI-60 one-dose screen, 48 h
- Run Conditions: 10 µM unless noted
About 83,000 compounds went through this panel and 20% of them were active in at least one assay; those are over-represented in the sample as a whole. Activity calls are given as the source filed them. The calls were made as follows: active = growth percent below 10; inactive = the rest.
Would you mind answering with one of these outcomes? y for active, n for inactive

Task: Would you mind telling me which call this test gave COc1ccc2c(c1)[nH]c(=O)c1c3cc(OC)ccc3cn21 ?
Output: y

Task: Would you mind telling me which call this test gave COc1cc(-c2nn(-c3cccc(NC(=O)c4ccc(N5CCOCC5)c(C(F)(F)F)c4)c3)cc2-c2ccncc2)ccc1Cl ?
Output: y

Task: Would you mind telling me which call this test gave COC(=O)[C@]12CC[C@@H](C)[C@H](C)[C@@H]1C1=CC[C@@H]3[C@@]4(C)C(C=O)=C[C@@](C)(COC(=O)c5ccco5)[C@@H]4[C@H](O)C[C@@]3(C)[C@]1(C)CC2 ?
Output: y

Task: Would you mind telling me which call this test gave O=C1/C(=C/c2ccc(Cl)cc2)CN(Cc2cn(CCNc3ccnc4cc(Cl)ccc34)nn2)C/C1=C\c1ccc(Cl)cc1 ?
Output: y

Task: Would you mind telling me which call this test gave CCN(CC)CCOc1ccc(Cl)c(C)c1 ?
Output: n

Task: Would you mind telling me which call this test gave CC(C)OC(=O)N1CCOCC1 ?
Output: n

Task: Would you mind telling me which call this test gave CCC1=CCC[C@@]2(C)CCC[C@@]3(C)CCCC(C)(C)[C@]1([O-])[O+]32 ?
Output: n

Task: Would you mind telling me which call this test gave c1cc2[nH]ncc2cc1-c1nc2ccc3[nH]ncc3c2c2c1CCC2 ?
Output: n
